Please respond with reported ThS net change for every item in the list.
System: 1N4R p-tau
Construct: made in house; host or cells: E. coli (PIMAX system)
assay name: p-tau aggregation modulator screen of 1280-compound library (ThS fluorescence net change over 16 h)
Assay type: biochemical
setup conditions: library screen, ThS fluorescence net change over 16 h with p-tau
Where a name gives a salt, the structure may show the parent alone.
Give bare numbers.

Recorded ThS net change, per entry:
compound	tgt	readout number
COc1ccc(-c2cc(=S)ss2)cc1 [Anethole-trithione]	1N4R p-tau	46
CC[C@H]1OC(=O)[C@H](C)[C@@H](O[C@H]2C[C@@](C)(OC)[C@@H](O)[C@H](C)O2)[C@H](C)[C@@H](O[C@@H]2O[C@H](C)C[C@H](N(C)C)[C@H]2O)[C@](C)(O)C[C@@H](C)C(=O)[C@H](C)[C@@H](O)[C@]1(C)O [Erythromycin]	1N4R p-tau	314
OCCOCCN1CCN(C(c2ccccc2)c2ccc(Cl)cc2)CC1 (centres unmarked) [Hydroxyzine dihydrochloride]	1N4R p-tau	309
CCN(CC)CCOC(=O)C(c1ccccc1)c1ccccc1 [Adiphenine hydrochloride]	1N4R p-tau	318

Next:
Q. Query the reported ThS net change for 1N4R p-tau; item: CN1CCOC(c2ccccc2)c2ccccc2C1 (centres unmarked) [Nefopam hydrochloride]
A. 324

---

Test system: 1N4R p-tau
Construct: made in house; host or cells: E. coli (PIMAX system)
assay name: p-tau aggregation modulator screen of 1280-compound library (ThS fluorescence net change over 16 h)
Type: biochemical
setup conditions: library screen, ThS fluorescence net change over 16 h with p-tau
Structures can show the parent of a compound that is named as a salt.
Use class 1 when the recorded ThS net change is no lower than 100; use class 0 when it is lower.

compound	class label
O=C(O)c1cc(/N=N/c2ccc(S(=O)(=O)Nc3ccccn3)cc2)ccc1O	class 1
Cc1cc(/C=C/c2ccc3cc(N(C)C)ccc3[n+]2C)c(C)n1-c1ccccc1 [Pyrvinium pamoate]	class 0
CCN(CC)CCOC(=O)C1(C2CCCCC2)CCCCC1 [Dicyclomine hydrochloride]	class 1
CN(C)[C@@H]1C(O)=C(C(N)=O)C(=O)[C@@]2(O)C(O)=C3C(=O)c4c(O)ccc(Cl)c4[C@@H](O)[C@H]3C[C@@H]12 [Demeclocycline hydrochloride]	class 1
COC(=O)Nc1nc2ccc(Sc3ccccc3)cc2[nH]1	class 1

Q. Decide: is the reported value of ThS net change for O=C1CN2Cc3c(ccc(Cl)c3Cl)N=C2N1 [Anagrelide] equal to or greater than 100?
A. class 0

Q. Decide: is the reported value of ThS net change for O=C1CN(/N=C/c2ccc(-c3ccc([N+](=O)[O-])cc3)o2)C([O-])=N1.[Na+] [Dantrolene sodium salt] equal to or greater than 100?
A. class 1

Q. Decide: is the reported value of ThS net change for CN(C)CCCN1c2ccccc2Sc2ccc(Cl)cc21 [Chlorpromazine hydrochloride] equal to or greater than 100?
A. class 1

---

tgt: p-tau (Homo sapiens)
Construct: made in house; host or cells: E. coli (PIMAX system)
Sequence (P10636 1-412 isoform P10636-7): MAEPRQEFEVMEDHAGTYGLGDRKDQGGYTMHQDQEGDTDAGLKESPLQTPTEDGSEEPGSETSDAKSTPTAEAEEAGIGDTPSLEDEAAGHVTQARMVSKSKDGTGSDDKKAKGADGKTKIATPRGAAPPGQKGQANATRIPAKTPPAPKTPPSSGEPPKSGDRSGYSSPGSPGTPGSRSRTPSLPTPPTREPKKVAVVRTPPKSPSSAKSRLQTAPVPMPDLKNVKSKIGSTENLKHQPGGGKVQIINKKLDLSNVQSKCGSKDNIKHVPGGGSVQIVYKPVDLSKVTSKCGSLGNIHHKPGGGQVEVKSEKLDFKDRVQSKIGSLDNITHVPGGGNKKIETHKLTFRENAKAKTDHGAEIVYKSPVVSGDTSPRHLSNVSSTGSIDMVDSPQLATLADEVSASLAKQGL
assay name: p-tau aggregation assay, dose response (ThS fluorescence, inducer-free)
Assay type: biochemical
setup conditions: 6 µM p-tau, ThS fluorescence
Description: Aggregation of 6-µM p-tau under the influence of 30 µM of each of the library compounds or a DMSO vehicle control was monitored in 384-well plates every 10 min for ThS fluorescence changes over 16 h. To assess the quality of the high-throughput p-tau aggregation reactions, we used the T0 and T16hr ThS fluorescence units of no-compound control reactions to calculate the Z′-factor and coefficient of variation (CV), two commonly used criteria for robustness of high-throughput screens (HTS)[62]. […]
Structures can show the parent of a compound that is named as a salt.
Please respond with reported pEC50 for every item in the list.
Answers are plain numbers, as −log10 of the molar value.

molecule	tgt	measurement type	readout number
COC(=O)C1=C(C)NC(C)=C(C(=O)OC)C1c1ccccc1[N+](=O)[O-] [Nifedipine, nifedipine, reference compound]	p-tau (Homo sapiens)	pEC50	4.61

Give pEC50 for all molecules that follow.
1. CN1CCc2cccc3c2[C@H]1Cc1ccc(O)c(O)c1-3 [Apomorphine, R-(−)-apomorphine hydrochloride]
2. CC(C)/N=c1\cc2n(-c3ccc(Cl)cc3)c3ccccc3nc-2cc1Nc1ccc(Cl)cc1 [Clofazimine, clofazimine, reference compound]

A.
4.74
4.17

Give pEC50 for all molecules that follow.
1. COC1=C(OC)C(=O)C(CCCCCCCCCCO)=C(C)C1=O
2. O=C(c1ccc(OCCN2CCCCC2)cc1)c1c(-c2ccc(O)cc2)sc2cc(O)ccc12 [Raloxifene, raloxifene hydrochloride]

A.
4.98
4.51

Give pEC50 for all molecules that follow.
1. NNc1nncc2ccccc12 [Hydralazine, hydralazine hydrochloride]
2. CCC(C)n1ncn(-c2ccc(N3CCN(c4ccc(OCC5COC(Cn6cncn6)(c6ccc(Cl)cc6Cl)O5)cc4)CC3)cc2)c1=O (stereo not shown) [Itraconazole, itraconazole, reference compound]

A.
1. 4.66
2. 4.97

---

System: 1N4R p-tau
Construct: made in house; host or cells: E. coli (PIMAX system)
assay name: p-tau aggregation modulator screen of 1280-compound library (ThS fluorescence net change over 16 h)
Assay type: biochemical
setup conditions: library screen, ThS fluorescence net change over 16 h with p-tau
Where a name gives a salt, the structure may show the parent alone.
Please respond with reported ThS net change for every item in the list.

molecule	result
Cl.Clc1ccc(Cn2c(CN3CCCC3)nc3ccccc32)cc1 [Clemizole hydrochloride]	325
O=C(Nc1cccc2c(=O)cc(-c3nnn[nH]3)oc12)c1ccc(OCCCCc2ccccc2)cc1 [Pranlukast]	288
Cc1ccc(C(=O)c2cc(O)c(O)c([N+](=O)[O-])c2)cc1 [Tolcapone]	214
CCCCC(CC)CNC(=N)NC(=N)NCCCCCCNC(=N)NC(=N)NCC(CC)CCCC (centres unmarked) [Alexidine dihydrochloride]	327
CN(C)c1ccc(O)c2c1C[C@H]1C[C@H]3[C@H](N(C)C)C(O)=C(C(N)=O)C(=O)[C@@]3(O)C(O)=C1C2=O [Minocycline hydrochloride]	121

Give ThS net change for all molecules that follow.
1. OCCN(CCO)c1nc(N2CCCCC2)c2nc(N(CCO)CCO)nc(N3CCCCC3)c2n1 [Dipyridamole]
2. CC(C)/N=c1\cc2n(-c3ccc(Cl)cc3)c3ccccc3nc-2cc1Nc1ccc(Cl)cc1 [Clofazimine, clofazimine, reference compound]
3. Clc1ccc(COC(Cn2ccnc2)c2ccc(Cl)cc2Cl)c(Cl)c1 (centres unmarked) [Miconazole]
4. CO[C@H]1/C=C/O[C@@]2(C)Oc3c(C)c(O)c4c(O)c(c5c(nc6cc(C)ccn65)c4c3C2=O)NC(=O)/C(C)=C\C=C\[C@H](C)[C@H](O)[C@@H](C)[C@@H](O)[C@@H](C)[C@H](OC(C)=O)[C@@H]1C [Rifaximin]
5. CN1CCCN=C1/C=C/c1cccc(O)c1.CN1CCCN=C1/C=C/c1cccc(O)c1.O=C(O)c1cc2ccccc2c(Cc2c(O)c(C(=O)O)cc3ccccc23)c1O [Oxantel pamoate]
6. COc1cc(C(=O)OCCCN2CCCN(CCCOC(=O)c3cc(OC)c(OC)c(OC)c3)CC2)cc(OC)c1OC.Cl.Cl [Dilazep dihydrochloride]

A.
[-5843, -196, 316, 112, 208, 286]

---

Tested on: 1N4R p-tau
Construct: made in house; host or cells: E. coli (PIMAX system)
assay name: p-tau aggregation modulator screen of 1280-compound library (ThS fluorescence net change over 16 h)
Format: biochemical
setup conditions: library screen, ThS fluorescence net change over 16 h with p-tau
Structures can show the parent of a compound that is named as a salt.
Please respond with reported ThS net change for every item in the list.
Give bare numbers.

Recorded ThS net change, per entry:
compound	ThS net change
COc1ccc(-c2cc(=O)c3c(O)cc(O[C@@H]4O[C@H](CO[C@@H]5O[C@@H](C)[C@H](O)[C@@H](O)[C@H]5O)[C@@H](O)[C@H](O)[C@H]4O)cc3o2)cc1O [Diosmin]	211
CCCCOc1cc(C(=O)OCCN(CC)CC)ccc1N [Benoxinate hydrochloride]	312
CN1CCC[C@@H]1CCO[C@](C)(c1ccccc1)c1ccc(Cl)cc1 [Clemastine fumarate]	268
N[C@@H](Cc1cc(I)c(Oc2cc(I)c(O)c(I)c2)c(I)c1)C(=O)O [Thyroxine (L)]	301
C=Cc1c(C)c2cc3nc(cc4[nH]c(cc5nc(cc1[nH]2)C(C)=C5CCC(=O)O)c(CCC(=O)OC)c4C)[C@@]1(C)C3=CC=C(C(=O)OC)C1C(=O)OC (stereo partly drawn) [Verteporfin]	-157

Next:
Q. What does the data say about its ThS net change? Entry: CN(C)[C@@H]1C(O)=C(C(N)=O)C(=O)[C@@]2(O)C(O)=C3C(=O)c4c(O)cccc4[C@@](C)(O)[C@H]3C[C@@H]12 [Tetracycline hydrochloride]
A. 202

---

Test system: 1N4R p-tau
Construct: made in house; host or cells: E. coli (PIMAX system)
assay name: p-tau aggregation modulator screen of 1280-compound library (ThS fluorescence net change over 16 h)
Format: biochemical
setup conditions: library screen, ThS fluorescence net change over 16 h with p-tau
Counter-ions that a name gives are not always drawn.
measurement type: ThS net change
Numbers only.

Recorded ThS net change, per entry:
> print(dat)
                                   compound  measurement.type  readout.number
1  CCN(CCCCOC(=O)c1ccc(OC)c(OC)c1)C(C)Cc1ccc(OC)cc1 (stereo not drawn) [Mebeverine hydrochloride]    ThS net change             295
2  [H]/N=C(\N/C(=N/[H])NCCCCCCNC(=N)NC(=N)Nc1ccc(Cl)cc1)Nc1ccc(Cl)cc1    ThS net change             317
3  COc1ccc(C(=O)CC(=O)c2ccc(C(C)(C)C)cc2)cc1    ThS net change             250
4  O=C1Cc2cc(CCN3CCN(c4nsc5ccccc45)CC3)c(Cl)cc2N1 [Ziprasidone Hydrochloride]    ThS net change             293
5  Nc1ccc(/N=N/c2ccccc2)c(N)n1 [Phenazopyridine hydrochloride]    ThS net change              12
6  NS(=O)(=O)c1cc2c(cc1Cl)NC(CC1CCCC1)NS2(=O)=O (stereo not drawn) [Cyclopenthiazide]    ThS net change               0

Give ThS net change for all compounds that follow.
1. COc1ccc(CN(CCN(C)C)c2ccccn2)cc1 [Pyrilamine maleate]
2. CN(C)CC/C=C1\c2ccccc2CSc2ccccc21 [Dosulepin hydrochloride]
3. CS(=O)(=O)Nc1ccc([N+](=O)[O-])cc1Oc1ccccc1 [Nimesulide]
4. O=c1n(CCCN2CCN(c3cccc(Cl)c3)CC2)nc2ccccn12 [Trazodone hydrochloride]

A.
298
311
288
316

Give ThS net change for all compounds that follow.
1. CC1CC(OC(=O)c2ccccc2O)CC(C)(C)C1 (stereo not drawn) [Homosalate]
2. Cc1cc(-c2ccccc2)nnc1NCCN1CCOCC1 [Minaprine dihydrochloride]

A.
[279, 294]

Give ThS net change for all compounds that follow.
1. O=C(O)c1cc(-c2ccc(F)cc2F)ccc1O
2. O=C(Nc1ccc([N+](=O)[O-])cc1Cl)c1cc(Cl)ccc1O [Niclosamide]
3. CN1CCCN=C1/C=C/c1cccs1.O=C(O)C(O)C(O)C(=O)O [Pyrantel tartrate]
4. N[C@@H](Cc1cc(I)c(Oc2ccc(O)c(I)c2)c(I)c1)C(=O)O
5. CN1CCC(=C2c3ccccc3Sc3ccccc32)CC1 [Pimethixene maleate]
6. Cc1scc2c1N(C(=O)CN1CCN(C)CC1)c1ccccc1NC2=O [Telenzepine dihydrochloride]

A.
1: 304; 2: 199; 3: 312; 4: 298; 5: 320; 6: 326
